This listing pairs compounds with measured MIC.
Tested on: Micrococcus luteus
Assay: Antimicrobial activity against Micrococcus flavus ATCC 10240 by serial dilution technique
Format: functional

// known answers, use as guide
- C/C1=C\CC/C(CO)=C/[C@H]2OC(=O)[C@@H](C)[C@@H]2[C@@H](O)C1: 1.1 µM
- C=C[C@]1(C)C[C@H](O)[C@@H]2[C@H](OC(=O)[C@H]2C)[C@H]1C(=C)CO: 2.3 µM
- CN[C@@H]1[C@H](O[C@H]2[C@H](O[C@H]3[C@H](O)[C@@H](O)[C@H](N=C(N)N)[C@@H](O)[C@@H]3N=C(N)N)O[C@@H](C)[C@]2(O)C=O)O[C@@H](CO)[C@H](O)[C@H]1O [STREPTOMYCIN]: 0.8 µM

Inquiry: If you can, please state the reported MIC value of C[C@@H]1C(=O)O[C@H]2[C@H]1[C@@H](O)C[C@]1(C)[C@@H]2[C@@H](C=O)CC[C@H]1O .
Reply text: 0.7 µM

Inquiry: Could you do the same for C[C@@H]1C(=O)O[C@@H]2C3[C@H](C=O)CCC[C@]3(C)C[C@H](O)[C@@H]12 (stereo partly specified) , please?
Reply text: 0.5 µM

Inquiry: Could you do the same for C=C[C@]1(C)C[C@H](OC(=O)C(=C)CCO)[C@@H]2[C@H](OC(=O)[C@H]2C)[C@H]1C(=C)CO , please?
Reply text: 0.4 µM
